B1: glmS ribozyme (parent)
chain: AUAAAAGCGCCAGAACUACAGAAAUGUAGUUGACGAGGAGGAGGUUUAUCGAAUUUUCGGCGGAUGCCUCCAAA

Variants of: B1
Method Summary: kcat; higher = faster cleavage; RNA array
Condition Details: with glucosamine-6-phosphate
Variants at the floor of the assay were thinned out.
Endpoint Name: kcat (s⁻¹)
State the answer as a number, implicitly in s⁻¹.

query: Quick one: kcat for G29C C58U ?
result: 5.79e-05

query: Let us now turn to G32U U56C
result: 0.000177

query: Let us now turn to C11A C16U
result: 0.000159

query: Let us now turn to G29U G32U
result: 0.00125

query: Let us now turn to U54G U57G
result: 3.71e-05

query: Let us now turn to G51U G60C C68A
result: 2.85e-05

query: Let us now turn to G32A U45G
result: 0.000591

query: Let us now turn to A15G U46G
result: 0.00908

query: Let us now turn to A42G U49A
result: 1.03e-05

query: Let us now turn to C10U A52U C68G
result: 0.000101

query: Let us now turn to G29U G32C
result: 0.000123

query: Let us now turn to G37A G43A
result: 2.89e-05

query: Let us now turn to G43A U56G
result: 4.8e-05

query: Let us now turn to A12U U46C
result: 0.0152

query: Let us now turn to G13A U56A A64G
result: 0.000331

query: Let us now turn to G13U A52U
result: 1.58e-05

query: Let us now turn to A14G G60A
result: 8.13e-05

query: Let us now turn to A48G U54G
result: 0.000141

query: Let us now turn to U65G U69G
result: 6.55e-05

query: Let us now turn to A14U A48U
result: 0.000103

query: Let us now turn to G9A U45A
result: 1.6e-05

query: Let us now turn to G40U U55C
result: 0.000228

query: Let us now turn to C34U C68A
result: 1.2e-05

query: Let us now turn to U47C U57C
result: 6.99e-05

query: Let us now turn to G32A A42G A64G
result: 0.00178

query: Let us now turn to A52G C71G
result: 0.00014

query: Let us now turn to U31C U65C
result: 5e-05

query: Let us now turn to G13U U30G
result: 0.000187

query: Let us now turn to G37A A53U
result: 0.00237

query: Let us now turn to C11A G29A
result: 3.97e-05

query: Let us now turn to C16U G41C
result: 0.000304

query: Let us now turn to G40A U56C
result: 0.000181

query: Let us now turn to G41A U54G
result: 0.000873

query: Let us now turn to A14C A42G
result: 0.0097

query: Let us now turn to A48U U65G C70U
result: 0.00017

query: Let us now turn to A39G A48U
result: 0.00118

query: Let us now turn to A12G U56G
result: 0.000904

query: Let us now turn to G32A C67A
result: 0.000956
